Biological target: Avi-humanTEAD4 217-434 / Cy5 labeled humanYAP 60-100 (Homo sapiens (Human), UniProt Q15561)
Sequence (Q15561 217-434): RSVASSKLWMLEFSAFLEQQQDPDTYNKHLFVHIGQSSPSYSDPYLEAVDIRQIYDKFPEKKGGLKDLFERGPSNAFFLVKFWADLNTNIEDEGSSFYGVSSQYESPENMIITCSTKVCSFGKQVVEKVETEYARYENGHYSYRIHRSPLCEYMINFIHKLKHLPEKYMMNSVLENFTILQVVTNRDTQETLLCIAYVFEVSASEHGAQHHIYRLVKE
Test: TR-FRET YAP-TEAD4 in-vitro biochemical assay
Details: 1 nM Avi-humanTEAD4 217-434, 20 nM Cy5-humanYAP 60-100, 1 h room temperature

# MOLECULE, IC50 (nM)
measured = [
    ("NC(=O)c1ccc(OCCO)c(F)c1-c1c(Cl)c(F)cc2c1C[C@](c1ccccc1)([C@@H]1CCCN1)O2 (atropisomer, axis not shown)", 2),
    ("NC(=O)c1ccc(OCCO)c(F)c1-c1c(Cl)c(F)cc2c1C[C@@](CN[C@H]1C[C@H](C(F)F)C1)(c1ccccc1)O2 (relative stereo) [Example 140b]", 6),
    ("CNC(=O)c1cnc(OCCO)c(F)c1-c1c(Cl)c(F)cc2c1C[C@](c1ccccc1)([C@@H]1CCCN1)N2 (atropisomer, axis not shown)", 14),
    ("C[C@@H](F)COc1ccc(C(N)=O)c(-c2c(Cl)ccc3c2C[C@@](CN)(c2ccccc2)O3)c1F (atropisomer, axis not shown)", 10),
    ("C[C@H](O)COc1ccc(C(N)=O)c(-c2c(Cl)c(F)cc3c2C[C@](c2ccccc2)([C@@H]2CCCN2)O3)c1F (atropisomer, axis not shown)", 2),
]

====

Tested on: MKN-45/Ubc-luc cells
Assay: Proliferation assay (resazurin), MKN-45
Assay type: cell-based
Details: 72 hours incubation

# COMPOUND, VALUE UNIT, COMPARATOR, GI50
measured = [
    ("C[C@H]1c2c(ccc(Cl)c2-c2c(C(N)=O)ccc(OC(F)F)c2F)O[C@]1(CN[C@H]1CC[C@@](C)(O)CC1)c1ccccc1 (relative stereo) [Example 104a]", "µM", "=", 6.2),
    ("COc1ccc(C(N)=O)c(-c2c(Cl)ccc3c2C[C@@](CN[C@H]2CC[C@H](C(=O)O)CC2)(c2ccccc2)O3)c1F (relative stereo) [Example 28a]", "µM", ">", 10),
    ("COc1ccc(C(N)=O)c(-c2c(Cl)c(F)cc3c2[C@H](C)[C@@](CN)(c2ccccc2)O3)c1F", "µM", "=", 16),
]

====

Molecular target: Avi-humanTEAD4 217-434 / Cy5 labeled humanYAP 60-100 (Homo sapiens (Human), UniProt Q15561)
Experiment: TR-FRET YAP-TEAD4 in-vitro biochemical assay
Type: binding
Settings: 1 nM Avi-humanTEAD4 217-434, 20 nM Cy5-humanYAP 60-100, 1 h room temperature
ENDPOINT NAME: log10(IC50) (log10 of the value in nM)

# COMPOUND, log10(IC50)
data = [
    ("C[C@H]1c2c(cc(F)c(Cl)c2-c2c(OCCO)ccc(F)c2F)O[C@]1(CN)c1ccccc1 (atropisomer, axis not shown) [Example 124]", 1.04),
    ("CC(=O)N1CCO[C@@H](COc2ccc(C(N)=O)c(-c3c(Cl)ccc4c3C[C@@](CN)(c3ccccc3)O4)c2F)C1 (atropisomer, axis not shown) [Example 17]", 1.11),
    ("COc1ccc(C(=O)NC2CC2)c(-c2c(Cl)ccc3c2C[C@@](CN)(c2ccccc2)O3)c1F (atropisomer, axis not shown) [Example 23]", 0.95),
    ("C[C@]1(NC[C@@]2(c3ccccc3)Cc3c(cc(F)c(Cl)c3-c3c(C(N)=O)ccc(OC(F)F)c3F)O2)CC[C@H](O)CC1 (atropisomer, axis not shown) [Example 84]", 1.61),
    ("COCCOc1ccc(C(N)=O)c(-c2c(Cl)c(F)cc3c2C[C@@](CN)(c2ccccc2)O3)c1F (atropisomer, axis not shown) [Example 37]", 0.30),
    ("NC[C@@]1(c2ccccc2)Cc2c(ccc(Cl)c2-c2c(F)cccc2C(N)=O)O1 (stereo in doubt) [Example 4a]", 1.53),
    ("CO[C@H]1c2c(cc(F)c(Cl)c2-c2c(C(N)=O)ccc(OCCO)c2F)O[C@@]1(c1ccccc1)C1CCCN1 (stereo partly drawn) [Example 166]", 0.90),
    ("COc1ccc(C(N)=O)c(-c2c(Cl)ccc3c2[C@H](O)[C@@](CN)(c2ccccc2OC(F)(F)F)O3)c1F (atropisomer, axis not shown) [Example 93]", 0.95),
    ("COc1ccc(C(N)=O)c(-c2c(Cl)c(F)cc3c2[C@H](C)[C@@](CN)(c2ccccn2)O3)c1F (atropisomer, axis not shown) [Example 109]", 0.48),
    ("C[C@H]1c2c(ccc(Cl)c2-c2c(C(N)=O)ccc(OC(F)F)c2F)O[C@]1(CN)c1ccccc1 (atropisomer, axis not shown) [Example 103]", 0.70),
    ("C[C@H]1c2c(ccc(Cl)c2-c2c(C(N)=O)ccc(OC(F)F)c2F)O[C@]1(CN[C@H]1CC[C@@](C)(O)CC1)c1ccccc1 (relative stereo) [Example 104a]", 0.48),
]

====

Molecular target: Avi-humanTEAD4 217-434 / Cy5 labeled humanYAP 60-100 (Homo sapiens (Human))
Experiment: TR-FRET YAP-TEAD4 in-vitro biochemical assay
Conditions: 1 nM Avi-humanTEAD4 217-434, 20 nM Cy5-humanYAP 60-100, 1 h room temperature

# MOLECULE, VALUE UNIT, IC50
records = [
    ("C[C@]1(O)CC[C@@H](NC[C@@]2(c3ccccc3)Cc3c(cc(F)c(Cl)c3-c3c(C(N)=O)ccc(OC[C@H]4CCCO4)c3F)O2)CC1 (atropisomer, axis not shown) [Example 67a]", "nM", 2),
    ("C[C@H](O)COc1ccc(C(N)=O)c(-c2c(Cl)c(F)cc3c2[C@H](C)[C@](c2ccccc2)(C2CCCN2)O3)c1F (some centres unmarked)", "nM", 10),
    ("NC[C@@]1(c2ccccc2)Cc2c(cc(F)c(Cl)c2-c2c(C(N)=O)ccc(OCCC(F)F)c2F)O1 (atropisomer, axis not shown)", "nM", 89),
    ("COc1ncc(C(N)=O)c(-c2c(Cl)ccc3c2C[C@@](CN)(c2ccccc2)O3)c1F (atropisomer, axis not shown)", "nM", 4),
    ("CN(C)C(=O)CN1CCC(NC[C@@]2(c3ccccc3)Cc3c(cc(F)c(Cl)c3-c3c(C(N)=O)ccc(OC(F)F)c3F)O2)CC1 (atropisomer, axis not shown)", "nM", 20),
    ("CNC[C@]1(c2ccccn2)Oc2cc(F)c(Cl)c(-c3c(C(N)=O)ccc(OCCO)c3F)c2[C@@H]1C (atropisomer, axis not shown)", "nM", 1),
    ("C[C@H]1c2c(cc(F)c(Cl)c2-c2c(C(N)=O)ccc(OC(F)F)c2F)O[C@]1(CN[C@H]1CC[C@H](O)CC1)c1ccccc1 (atropisomer, axis not shown) [Example 115a]", "nM", 2),
    ("C[C@H](O)COc1ccc(C(N)=O)c(-c2c(Cl)c(F)cc3c2[C@H](C)[C@@](CN[C@H]2CC[C@](C)(O)CC2)(c2ccccc2)O3)c1F (atropisomer, axis not shown) [Example 114a]", "nM", 2),
    ("N#Cc1ccc2c(c1-c1ccccc1)C[C@@](CN[C@H]1CC[C@H](O)CC1)(c1ccccc1)O2", "nM", 797),
    ("NC(=O)c1ccc(OC(F)F)c(F)c1-c1c(Cl)c(F)cc2c1C[C@@](CNC1CCC(O)(CF)CC1)(c1ccccc1)O2 (single isomer, unassigned) [Example 55b]", "nM", 2),
    ("COc1ccc(C(N)=O)c(-c2c(Cl)c(F)cc3c2[C@H](C)[C@@](CN)(c2ccccc2)O3)c1F", "nM", 3),
]

====

IC50 overview
Target: Avi-humanTEAD4 217-434 / Cy5 labeled humanYAP 60-100 (Homo sapiens (Human))
Assay: TR-FRET YAP-TEAD4 in-vitro biochemical assay
Conditions: 1 nM Avi-humanTEAD4 217-434, 20 nM Cy5-humanYAP 60-100, 1 h room temperature

# MOLECULE, IC50 / nM
rows = [
    ("CNC[C@@]1(c2ccccc2)Cc2c(cc(F)c(Cl)c2-c2c(C(=O)NC)ccc(OCCO)c2F)O1 (atropisomer, axis not shown)", 3),
    ("NC(=O)c1ccc(OC(F)F)c(F)c1-c1c(Cl)c(F)cc2c1C[C@@](CN[C@@H]1CCC[C@H](O)C1)(c1ccccc1)O2 (atropisomer, axis not shown)", 24),
    ("COc1ccc(C(N)=O)c(-c2c(Cl)ccc3c2C[C@@](CN)(c2cscn2)O3)c1F (atropisomer, axis not shown)", 10),
    ("CS(=O)(=O)[C@H]1CC[C@@H](NC[C@@]2(c3ccccc3)Cc3c(cc(F)c(Cl)c3-c3c(C(N)=O)ccc(OC(F)F)c3F)O2)CC1 [Example 54a]", 75),
    ("COc1ccc(C(N)=O)c(-c2c(Cl)c(F)cc3c2[C@H](O)[C@](c2ccccc2)(C2CCCN2)O3)c1F (some centres unmarked)", 4),
    ("CNC[C@]1(c2ccccn2)Oc2cc(F)c(Cl)c(-c3c(C(N)=O)ccc(OCCOC)c3F)c2[C@@H]1C (atropisomer, axis not shown)", 4),
    ("NC(=O)c1ccc(OC(F)F)c(F)c1-c1c(Cl)c(F)cc2c1C[C@](c1ccccc1)(C1CC(O)CN1)O2 (single isomer, unassigned)", 5),
    ("C[C@H]1c2c(cc(F)c(Cl)c2-c2c(C(N)=O)cnc(OCCO)c2F)O[C@]1(CN[C@H]1CC[C@](C)(O)CC1)c1ccccc1 (atropisomer, axis not shown)", 2),
    ("NC(=O)c1ccc(OC(F)F)c(F)c1-c1c(Cl)c(F)cc2c1[C@H](O)[C@@](CN[C@H]1CC[C@H](O)CC1)(c1ccccc1)O2 (relative stereo) [Example 100a]", 2),
    ("C[C@]1(O)CC[C@H](NC[C@@]2(c3ccccc3)Cc3c(cc(F)c(Cl)c3-c3c(C(N)=O)ccc(-n4ccnc4)c3F)O2)CC1 (atropisomer, axis not shown) [Example 69a]", 5),
    ("CNC(=O)c1ccc(OC)c(F)c1-c1c(C#N)ccc2c1C[C@@](CN[C@H]1CC[C@](C)(O)CC1)(c1ccccc1)O2 (atropisomer, axis not shown)", 25),
]
